The compounds listed here are annotated with their IC50.
Target: CB1 (CNR1) (Homo sapiens)
Sequence (P21554 whole entry): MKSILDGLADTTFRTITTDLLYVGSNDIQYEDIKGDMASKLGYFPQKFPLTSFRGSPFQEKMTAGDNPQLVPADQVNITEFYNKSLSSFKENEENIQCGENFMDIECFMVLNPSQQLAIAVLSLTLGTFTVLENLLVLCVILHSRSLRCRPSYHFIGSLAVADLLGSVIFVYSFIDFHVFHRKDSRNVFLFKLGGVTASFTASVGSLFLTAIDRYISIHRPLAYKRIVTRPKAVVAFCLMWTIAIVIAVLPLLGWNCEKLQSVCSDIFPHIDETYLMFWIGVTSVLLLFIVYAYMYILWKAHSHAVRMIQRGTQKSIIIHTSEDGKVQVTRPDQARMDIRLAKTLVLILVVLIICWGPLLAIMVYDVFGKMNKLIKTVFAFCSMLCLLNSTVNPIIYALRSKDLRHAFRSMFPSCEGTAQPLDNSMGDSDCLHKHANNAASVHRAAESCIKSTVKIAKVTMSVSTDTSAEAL
Assay: cAMP CNR1 Hunter cell line antagonist assay (CB1 assay)
Settings: antagonist mode, cAMP CNR1 Hunter cells, EC80 agonist; read-out: CB1 assay, Efficacy (IC50)
observationType: IC50

compound="COc1ccc(NS(=O)(=O)c2cc3c(cc2Br)N(C)C(=O)C(C)O3)cc1 (centres unmarked)" testedsystem="CB1 (CNR1) (Homo sapiens)" resultvalue="≥ 25 µM"
compound="CC1Oc2c(cc(Cl)cc2S(=O)(=O)Nc2cccc(F)c2)NC1=O (centres unmarked)" testedsystem="CB1 (CNR1) (Homo sapiens)" resultvalue="≥ 25 µM"
compound=COc1ccc(NS(=O)(=O)c2cc3c(cc2Br)NC(=O)CCO3)cc1 testedsystem="CB1 (CNR1) (Homo sapiens)" resultvalue="< 1 µM"
compound=CC(C)c1ccc(NS(=O)(=O)c2cc(Cl)cc3c2OCC(=O)N3)cc1 testedsystem="CB1 (CNR1) (Homo sapiens)" resultvalue="≥ 25 µM"
compound="CCCNS(=O)(=O)c1cc2c(cc1Cl)NC(=O)C(CC)O2 (centres unmarked)" testedsystem="CB1 (CNR1) (Homo sapiens)" resultvalue="≥ 25 µM"
